Give Percent Effect for every item shown.
- study-target: AMP-activated protein kinase, AMPK (Homo sapiens) (UniProt P54646+O43741+P54619+Q9UGJ0+Q9Y478+Q13131+Q9UGI9)
- experimental-details: AMP-dependent Kinase enzyme assay. An in vitro enzyme assay that detects ADP turnover that is directly proportional to AMPK activity. This uses naive AMPK that is activated during the assay with MK-8722
- Format: functional
- Set-up: scale not given: direction of the effect not stated beside the values
- protocol-conditions: 30 µM
One number for each entry, in %.

Look over these answered cases.
1) Cc1ccc(OCC(=O)NS(=O)(=O)c2cccnc2)cc1C    3.98
2) CCCNC(=O)CCC(=O)Nc1ccc(-n2cncn2)c(F)c1    -2.96
3) CN(Cc1ccsc1)C(=O)c1cccc(S(=O)(=O)NC(C)(C)C)c1    -6.77

List the reported Percent Effect of each compound below.
1. CC(Cn1cncn1)NCc1nncn1C1CCCCC1 (stereo not given)
2. CCc1nnc2n1CCN(C(=O)Cc1csc(-c3ccco3)n1)C2
3. COc1ccc(CN2CCCC(Cn3nc(C)nc3C)C2)cc1F (stereo not given)
4. Cc1ccc([C@]2(O)CC[C@H]3CN(Cc4cc(C)c(O)c(C)c4)C[C@H]32)nc1
5. Cc1ccc2c(c1)c(CNC(=O)C1CC(=O)N(C3CCCC3)C1)nn2C (stereo not given)
6. CCOc1cccc(CNC(=O)NCC(O)c2cccc(F)c2)c1 (stereo not given)
7. CC(C)Oc1ncc(C(=O)N2CCC(NC(=O)C3CC3)CC2)cc1Cl
8. COCC(=O)N1CCN(C(=O)c2scnc2C)CC1

Result:
[-10.2, -5.8, 7.97, 23.7, 4.01, -2, -0.0193, 1.74]

* * *

Give Percent Effect for every item shown.
- study-target: Chromo domain-containing protein 1 (Saccharomyces cerevisiae (strain ATCC 204508 / S288c) (Baker's yeast))
- experimental-details: ScCHD-1 Enzyme Inhibition Assay; further: in the data most compounds retested in dose-response had high values
- Type: functional
- Parameters: scale not given: direction of the effect not stated beside the values
- protocol-conditions: 30 µM
One number for each entry, in %.

Look over these answered cases.
1. N#Cc1ccc(CN2CCN(C(=O)c3cc(C4CC4)[nH]n3)CC2)cc1    -4.6
2. O=C(Cn1cnc(-c2ccccc2)cc1=O)Nc1ccncc1    -9.23
3. Cc1cccnc1NC(=O)C1CCCN1Cc1ccccc1 (configuration not stated)    -9.24
4. CCCn1ccc(C(=O)N2CCC(C)CC2)n1    -1.29
5. Cc1nc[nH]c1CN1C[C@@H]2CC[C@H](C1)N(C(=O)CCc1cnn(C)c1)C2    -1

List the reported Percent Effect of each compound below.
1. CC(C(=O)Nc1cccc(N2CCCCC2)c1)n1cncn1 (configuration not stated)
2. CCn1cnnc1CNC(=O)N1CCCN(C(C)=O)CC1

Result:
-10.9
-20.1

List the reported Percent Effect of each compound below.
1. CCCOc1ccc(CNC(=O)N2CCC(C(N)=O)C2)cc1 (configuration not stated)
2. Cc1nccn1C1CCCN(C(=O)c2cc(O)nc3ccccc23)C1 (configuration not stated)
3. CC(C)c1noc(C(C)N2CCN(CCO)CC2)n1 (configuration not stated)
4. Cn1cc(CCNC(=O)CCc2ccc3c(c2)OCO3)cn1

Result:
-2.35
-5.76
-0.137
-6.68

Problem: For the compound shown here, Cc1cnn(C2CN(CC(O)c3ccc(F)cc3)C2)c1 (configuration not stated) , give the reported Percent Effect.
Result: 105

* * *

- Species on record: Homo sapiens
- experimental-details: To identify inhibition of the IFN signalling (Jak-Stat) pathway via expression of an eGFP reporter gene under the control of an IFN-stimulated response element (ISRE) containing MxA promoter.
- Type: functional
- Parameters: scale not given: direction of the effect not stated beside the values
- protocol-conditions: 30 µM
readout: Percent Effect (%)
One number for each entry, in %.

Look over these answered cases.
1) O=C(NCCNc1ncccn1)C1CCN(c2ncccn2)CC1    26.3
2) Cc1nnc2n1CCN(Cc1csc(Cc3ccccc3)n1)C2    8.73
3) O=C(NCc1ccccn1)Nc1cc(C(F)(F)F)c[nH]c1=O    2.58
4) CCCS(=O)(=O)N1CCC2(CN(c3ccsc3)C(=O)CN2C)C1 (centres undefined)    -4.15
5) Cn1ncc2c(=O)[nH]c(CN(Cc3ccco3)C3CCCC3)nc21    6.82

List the reported Percent Effect of each compound below.
1. CN(C)S(=O)(=O)N1CCCC1CC(=O)c1cccs1 (centres undefined)
2. O=C(c1cc(Cl)cc(Cl)c1)N1CCN(c2nccs2)CC1
3. COc1ccc2c(c1)CCN(CCC(=O)O)CC2
4. OCc1ccc(Cl)c(NCc2cccnc2)c1
5. CN(C)CCO[C@H]1CN(Cc2cccc(C#N)c2)[C@@H]2COC[C@H]12
6. CCc1cnc(CN(C(C)=O)C2CCN(CCc3cnn(C)c3)C2)o1 (centres undefined)
7. Cc1cccc(COC[C@]23COC[C@H]2CN(C(=O)c2ccsc2)C3)n1

Result:
1. 16.6
2. 0.362
3. 6.58
4. -2.65
5. -12.1
6. -1.17
7. -2.76

List the reported Percent Effect of each compound below.
1. O=C(NCC1CC1)[C@H]1C[C@H]2OCC[C@H]2N(CCc2ccccc2)C1
2. CC(=O)N1CCC(CN2CCN(Cc3nccn3C)C(C)C2)CC1 (centres undefined)

Result:
1: 0.915; 2: 17.6

List the reported Percent Effect of each compound below.
1. CCCOCCN1CCC2(CC1)CC(c1ccccc1)C(=O)N2C (centres undefined)
2. CNC(=O)[C@H]1C[C@H]2OCC[C@H]2N(Cc2ccc(C)o2)C1

Result:
[48.6, 7.69]

List the reported Percent Effect of each compound below.
1. COCc1nn(C(C)C)c2c1CCN(Cc1ccc(C)s1)C2
2. COc1ccccc1CN(C)C(=O)c1cc(CN2CCC(O)CC2)on1
3. CNC(=O)c1nc2c(s1)CCN(C(=O)Cc1ccc(OC)cc1)CC2

Result:
1.17
-1.57
8.46

* * *

Give Percent Effect for every item shown.
- study-target: Tyrosyl-tRNA synthetase, putative (Trypanosoma cruzi (strain CL Brener))
- experimental-details: Trypanosoma cruzi tyrosyl tRNA synthetase (TcYRS) _High Tyrosine SOP; further: in the data most compounds retested in dose-response had high values
- Format: functional
- Design: scale not given: direction of the effect not stated beside the values
- protocol-conditions: 30 µM
One number for each entry, in %.

Look over these answered cases.
1. CCOc1ncccc1C(=O)N1CCCCC1c1nccs1 (stereo not given)    4.43
2. COCCNC(=O)[C@H]1C[C@@H]2CCN(c3nncs3)C[C@H]2O1    5.94
3. CC(C)n1ccnc1C1CCCN(c2ccccn2)C1 (stereo not given)    3.83
4. CC(C)COC(C)C(=O)NCc1ccc(N(C)C)cc1 (stereo not given)    5.71
5. Cc1nc(C)n(CC2CCCN2CCCOc2ccc(F)cc2)n1 (stereo not given)    8.37
6. CCS(=O)(=O)N(C)C(=O)c1cc(C)n(-c2cccc(OC)c2)c1C    4.43

List the reported Percent Effect of each compound below.
1. Cc1nnc(N2CC[C@H]3C[C@@H](C(=O)NC4CCCC4)O[C@H]3C2)s1
2. Cc1noc(CN(Cc2ccc3c(c2)OCO3)Cc2ccc(C)o2)n1
3. COc1cc(C)sc1C(=O)N1CCC(Nc2cccnc2)CC1
4. COc1ccc(CCC(=O)NC2CCC(O)CC2)cc1OC (stereo not given)
5. C[S+]([O-])c1nncn1CC(=O)c1ccc2c(c1)CCO2 (stereo not given)
6. O=C(NCC(O)c1cccc(F)c1)c1cccnc1O (stereo not given)
7. CCC(O)CNC(=O)c1coc(COc2ccc3sc(C)nc3c2)n1 (stereo not given)

Result:
1. -1.08
2. 8.37
3. 8.33
4. 2.46
5. 3.23
6. 7.29
7. -1.07

List the reported Percent Effect of each compound below.
1. CS(=O)(=O)N1CCC(C(=O)NCCNc2ncccn2)CC1
2. Cc1nc(CN2CCCC(N(C)CCc3cccs3)C2)no1 (stereo not given)
3. O=C(c1cscn1)N1C[C@@H]2C[C@@H](c3nnc(C4CC4)o3)O[C@@H]2C1
4. Cn1c(CN2CCOCC2)nnc1C1CCN(C(=O)C2CCCC2)CC1
5. CCNc1cc2c(nn1)CCN(C(=O)c1ccc(NC3CC3)nc1)C2
6. CC(C)N1CCC(Cc2cc(-c3cccc(C(=O)O)c3)ncn2)C1 (stereo not given)

Result:
1. 6.93
2. 7.37
3. -1.06
4. 5.82
5. 5.39
6. 2.15

* * *

- study-target: Sialic acid-binding Ig-like lectin 9 (Homo sapiens)
- experimental-details: Hs-Siglec9 ALPHAscreen SOP 20170721
- Design: scale not given: direction of the effect not stated beside the values
- protocol-conditions: 10 µM
readout: Percent Effect (%)
One number for each entry, in %.

1. Cc1cnn(CCNCC(O)COc2c(C)ccc(C)c2C)c1 (centres undefined)    20.1
2. Cc1nnc(NC(=O)CN(C)CC2CCCN2c2cccnn2)s1 (centres undefined)    17.7
3. NC(=O)CN1CCCN(C(=O)c2ccn(-c3cccc(F)c3)n2)CC1    -6

List the reported Percent Effect of each molecule below.
1. O=C(NCC(O)c1cccc(F)c1)c1cccnc1O (centres undefined)
2. CCc1nc(C2CCCN2Cc2nccn2Cc2ccccc2)no1 (centres undefined)
3. Cc1nn(C)c(N2CCOCC2)c1CNC(c1cccs1)C(C)C (centres undefined)
4. CN(Cc1ccco1)Cc1ccccc1CNC(=O)c1ccncc1
5. CC(=O)N(Cc1ncc(C(C)C)o1)C1CCN(Cc2ncc[nH]2)C1 (centres undefined)
6. CCCNC(=O)CNc1ccc(C(=O)N2CCCCC2C)cc1C (centres undefined)
7. CCOc1ccc(C#N)cc1NCC(=O)Nc1cc(C)no1
8. Cc1noc(C)c1CNC(=O)c1ccc(NC2CC2)nc1

Result:
7.14
13.2
-0.827
4.84
-1.85
-9.58
-0.0832
12.7
